Target: T1, human CD20 (human, UniProt P11836 1-297)
T1 sequence (looked up): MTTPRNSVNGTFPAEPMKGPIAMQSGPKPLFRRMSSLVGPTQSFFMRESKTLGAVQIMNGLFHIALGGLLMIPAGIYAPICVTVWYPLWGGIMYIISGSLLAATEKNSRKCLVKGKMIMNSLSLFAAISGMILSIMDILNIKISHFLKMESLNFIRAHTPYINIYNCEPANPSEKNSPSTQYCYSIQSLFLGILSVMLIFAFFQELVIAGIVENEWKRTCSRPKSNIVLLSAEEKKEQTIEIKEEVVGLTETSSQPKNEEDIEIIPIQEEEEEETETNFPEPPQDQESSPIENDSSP
Assay: cell-based or functional assay
Measured EC50 µg/ml Daudi CDC of individual entries
Readout Name: EC50 µg/ml Daudi CDC (µg/mL)

1. mAb 2.2.2 (antibody, human IgG1, V domains shown) VH: EVQLVQSGAEVKKPGESLKISCKGSGYSFTSYWIGWVRQMPGKGLEWMGIIYPGDSDTKYSPSFQGQVTISADKSISTAYLQWSSLKASDTAMYYCARQGDFWSGNGGMDVWGQGTTVTVSS VL: DIVMTQTPLSSPVTLGQPASISCRSSQSLVSRDGNTYLSWLQQRPGQPPRLLIYKISNRFSGVPDRFSGSGAGTDFTLKISRVEVEDVGVYYCMQATQFPITFGQGTRLEIK | 1.66
2. mAb 1.12.3 (antibody, human IgG1, V domains shown) VH: EVQLVQSGAEVKKPGESLKISCKGSGYSFTSYWIGWVRQMSGKGLEWMGIIYPGDSDTRYSPSFQGQVTISADKSISTAYLQWSSLKASDTAIYYCARHPSYGSGSPNFDYWGQGTLVTVSS VL: DIVMTQTPLSSPVTLGQPASISCRSSQSLVYSDGNTYLSWLQQRPGQPPRLLFYKISNRFSGVPDRFSGSGAGTDFTLKISRVEAEDVGVYYCVQATQFPLTFGGGTKVEIK | 9.39
3. mAb 2.1.2 (ATCC Accession Number PTA-7328) (antibody, human IgG1, V domains shown, Human IgG1 kappa; also called 2.1.1; 50-001H2_1_1) VH: EVQLVQSGAEVKKPGESLKISCKGSGYSFTSYWIGWVRQMPGKGLEWMGIIYPGDSDTRYSPSFQGQVTISADKSISTAYLQWSSLKASDTAMYYCARQGDFWSGYGGMDVWGQGTTVTVSS VL: DIVMTQTPHSSPVTLGQPASISCRSSQSLVSRDGNTYLSWLQQRPGQPPRLLIYKISNRFSGVPNRFSGSGAGTDFTLKISRVKAEDVGVYYCMQATQFPLTFGQGTRLEIK | 0.51
